The entries below are paired with their reported IC50.
measured-on: human matriptase-2 (Homo sapiens)
Construct: The conditioned medium of HEK-MT2 cells was used as a source of matriptase-2 activity; expressed in transfected cells; host or cells: HEK-MT2 cells (conditioned medium, collected and concentrated)
measurement-notes: Human matriptase-2 inhibition, fluorogenic substrate Boc-Gln-Ala-Arg-AMC, conditioned medium of HEK-MT2 cells
Assay type: biochemical
run-parameters: substrate 40 µM, pH 8.0, 37 °C; read-out: IC50 value for matriptase-2 inhibition

molecule | IC50
CCOC(=O)C(=O)N(Cc1ccccc1)c1ccc2c(c1)O[C@@H](COc1ccc(C(=N)N)cc1)CO2 [(S)-12] | < 10 µM

I'm curious: which IC50 was measured for N=C(N)c1ccccc1 [Benzamidine, reference compound] tested on human matriptase-2 (Homo sapiens)?
> 400 µM

* * *

measured-on: human matriptase-2 (Homo sapiens)
Construct: The conditioned medium of HEK-MT2 cells was used as a source of matriptase-2 activity; expressed in transfected cells; host or cells: HEK-MT2 cells (conditioned medium, collected and concentrated)
measurement-notes: Human matriptase-2 inhibition, fluorogenic substrate Boc-Gln-Ala-Arg-AMC, conditioned medium of HEK-MT2 cells
Type: biochemical
run-parameters: Table 1, 4H-3,1-benzothiazin-4-ones; substrate 40 µM, pH 8.0, 37 °C; values with SEM: duplicate, five inhibitor concentrations; limits: duplicate, single inhibitor concentration of 40 µM; read-out: IC50 (µM) ± SEM
measured-attribute: IC50

Some solved entries appear below for comparison.
structure-notation | result
CN1CCN(C(=O)c2ccc(C(=O)Nc3nc4ccccc4c(=O)s3)cc2)CC1 | > 160 µM
CN(C)CCNC(=O)c1ccc2nc(NC(=O)c3ccccc3)sc(=O)c2c1 | 148 µM

Which IC50 value belongs to O=C(Nc1nc2ccccc2c(=O)s1)c1ccc(C(=O)N2CCN(Cc3ccccc3)CC2)cc1 ?
> 160 µM

Which IC50 value belongs to CN(C)CCNC(=O)c1ccc2c(=O)sc(NC(=O)c3ccccc3)nc2c1 ?
> 160 µM

* * *

The entries below are paired with their reported IC50.
measured-on: human matriptase-2 (Homo sapiens, UniProt Q8IU80)
Construct: The conditioned medium of HEK-MT2 cells was used as a source of matriptase-2 activity; expressed in transfected cells; host or cells: HEK-MT2 cells (conditioned medium, collected and concentrated)
measurement-notes: Human matriptase-2 inhibition, fluorogenic substrate Boc-Gln-Ala-Arg-AMC, conditioned medium of HEK-MT2 cells
Format: biochemical
run-parameters: Table 1, 4H-3,1-benzothiazin-4-ones; substrate 40 µM, pH 8.0, 37 °C; values with SEM: duplicate, five inhibitor concentrations; limits: duplicate, single inhibitor concentration of 40 µM; read-out: IC50 (µM) ± SEM
Experimental: The conditioned medium of HEK-MT2 cells was used as a source of matriptase-2 activity and assay conditions were as follows. Assay buffer was 50 mM Tris–HCl, 150 mM NaCl, pH 8.0. […] Progress curves were analyzed by linear regression. IC50 values were determined by nonlinear regression using the equation vs = v0/(1 + [I]/IC50), where vs is the steady-state rate, v0 is the rate in the absence of the inhibitor, and [I] is the inhibitor concentration. […]

Some solved entries appear below for comparison.
structure-notation | measured-on | measured-attribute | result
O=C(Nc1nc2cc(C(=O)N3CCN(Cc4ccccc4)CC3)ccc2c(=O)s1)c1ccccc1 | human matriptase-2 (Homo sapiens, UniProt Q8IU80) | IC50 | > 160 µM
CN1CCN(C(=O)c2ccc3c(=O)sc(NC(=O)c4ccccc4)nc3c2)CC1 | human matriptase-2 (Homo sapiens, UniProt Q8IU80) | IC50 | > 160 µM
NCc1ccc(C(=O)Nc2nc3ccccc3c(=O)s2)cc1 | human matriptase-2 (Homo sapiens, UniProt Q8IU80) | IC50 | 119 µM
CN1CCN(C(=O)c2ccc3nc(NC(=O)c4ccccc4)sc(=O)c3c2)CC1 | human matriptase-2 (Homo sapiens, UniProt Q8IU80) | IC50 | > 160 µM

As a next step, examine the compound that follows.
I'm curious: which IC50 was measured for O=C(Nc1nc2ccc(C(=O)N3CCN(Cc4ccccc4)CC3)cc2c(=O)s1)c1ccccc1 tested on human matriptase-2 (Homo sapiens, UniProt Q8IU80)?
> 160 µM

* * *

measured-on: human matriptase-2 (Homo sapiens, UniProt Q8IU80)
Construct: The conditioned medium of HEK-MT2 cells was used as a source of matriptase-2 activity; expressed in transfected cells; host or cells: HEK-MT2 cells (conditioned medium, collected and concentrated)
Sequence (Q8IU80 577-811 limits assumed): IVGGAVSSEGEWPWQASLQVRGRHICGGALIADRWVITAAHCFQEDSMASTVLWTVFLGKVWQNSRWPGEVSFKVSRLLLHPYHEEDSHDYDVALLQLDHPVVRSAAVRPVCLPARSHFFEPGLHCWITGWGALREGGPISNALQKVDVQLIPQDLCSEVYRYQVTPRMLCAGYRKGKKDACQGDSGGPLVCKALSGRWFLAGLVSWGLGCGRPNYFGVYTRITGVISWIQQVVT
Sequence (Q8IU80 438-576 partner limits assumed): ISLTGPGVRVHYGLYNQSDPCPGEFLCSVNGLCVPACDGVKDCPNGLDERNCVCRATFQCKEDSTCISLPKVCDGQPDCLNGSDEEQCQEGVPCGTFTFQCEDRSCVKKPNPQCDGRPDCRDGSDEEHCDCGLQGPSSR
measurement-notes: Human matriptase-2 inhibition, fluorogenic substrate Boc-Gln-Ala-Arg-AMC, conditioned medium of HEK-MT2 cells
Format: biochemical
run-parameters: screening at single inhibitor concentration of 40 µM
measured-attribute: matriptase-2 inhibitory activity in words

molecule | result
CN1CC(C)(COc2ccc(C(=N)N)cc2)Oc2cc(N(Cc3ccc(F)cc3)C(=O)C(=O)O)ccc21 (stereo not shown) | inactive
CCOC(=O)C1CCN(c2ccc(N3C[C@@H](CNCc4ccc(C(=N)N)cc4)OC3=O)cc2)CC1 [(R)-24] | inactive
O=C(Nc1nc2ccc(C(=O)N3CCN(Cc4ccccc4)CC3)cc2c(=O)s1)c1ccccc1 | inactive

* * *

measured-on: human matriptase-2 (Homo sapiens, UniProt Q8IU80)
Construct: The conditioned medium of HEK-MT2 cells was used as a source of matriptase-2 activity; expressed in transfected cells; host or cells: HEK-MT2 cells (conditioned medium, collected and concentrated)
Sequence (Q8IU80 577-811 limits assumed): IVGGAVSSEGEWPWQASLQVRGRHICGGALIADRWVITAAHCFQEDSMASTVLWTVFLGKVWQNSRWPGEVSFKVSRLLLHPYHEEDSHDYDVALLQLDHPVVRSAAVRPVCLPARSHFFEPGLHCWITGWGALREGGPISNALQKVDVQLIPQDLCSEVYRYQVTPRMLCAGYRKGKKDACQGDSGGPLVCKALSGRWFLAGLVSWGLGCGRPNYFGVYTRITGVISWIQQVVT
Sequence (Q8IU80 438-576 partner limits assumed): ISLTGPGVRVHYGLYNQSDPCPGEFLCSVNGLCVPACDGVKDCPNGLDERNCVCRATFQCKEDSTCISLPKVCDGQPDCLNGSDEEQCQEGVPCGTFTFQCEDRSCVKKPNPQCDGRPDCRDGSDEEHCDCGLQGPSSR
measurement-notes: Human matriptase-2 inhibition, fluorogenic substrate Boc-Gln-Ala-Arg-AMC, conditioned medium of HEK-MT2 cells
Assay type: biochemical
run-parameters: Table 2, 2,3-dihydro-1,4-benzodioxines and 3,4-dihydro-2H-1,4-benzoxazines; substrate 40 µM, pH 8.0, 37 °C; values with SEM: duplicate, five inhibitor concentrations; limits: duplicate, single inhibitor concentration of 40 µM; read-out: IC50 (µM) ± SEM
measured-attribute: IC50 (µM)

compound | IC50, µM
CCOC(=O)CN(Cc1ccc(F)cc1)c1ccc2c(c1)OC(C)(COc1ccc(C(=N)N)cc1)CN2C (stereo not drawn) | 31.6
N=C(N)c1ccc(OC[C@H]2COc3cc(N(Cc4ccccc4)C(=O)C(=O)O)ccc3O2)cc1 [(S)-11] | 29.8
CN1CC(C)(COc2ccc(C(=N)N)cc2)Oc2cc(NC(=O)CCC(=O)O)ccc21 (stereo not drawn) | 38.8
CN1CC(C)(COc2ccc(C(=N)N)cc2)Oc2cc(N(CC(=O)O)Cc3ccc(F)cc3)ccc21 (stereo not drawn) | 13.6
N=C(N)c1ccc(CN2C(=O)COc3cc(NC(=O)[C@H](N)Cc4ccccc4)ccc32)cc1 | 30.9

I: N=C(N)c1ccc(OC[C@H]2COc3ccc(N(Cc4ccccc4)C(=O)C(=O)O)cc3O2)cc1 [(S)-10]
II: CN1CC(C)(COc2ccc(C(=N)N)cc2)Oc2cc(N(CC(=O)O)Cc3cc(F)cc(F)c3)ccc21 (stereo not drawn)
III: CCOC(=O)C(=O)N(Cc1ccccc1)c1ccc2c(c1)O[C@@H](COc1ccc(C(=N)N)cc1)CO2 [(S)-12]
IV: CN1C(=O)C(OCc2ccc(C(=N)N)cc2)Oc2cc(C(=O)Nc3ccccc3)ccc21 (stereo not drawn)
Task for the reader: rank each entry by its IC50, from the minimum upward. Answer by naming the labels in the order asked.
III, I, II, IV
(III: 8.47 µM, I: 16.7 µM, II: 25.8 µM, IV: 42.6 µM)
